Values were extracted from PubChem BioAssay (NCI).

I'd appreciate it if you could supply log10(TGI) values for the items below.
- Test system: HS 578T breast
- assay-comment: NCI tumour cell line growth inhibition, 48 h
Please interpret these as log10 of TGI where TGI is in µM.

# returns recorded log10(TGI) (system: HS 578T breast) for Cn1c(COC(=O)NC2CCCCC2)c(COC(=O)NC2CCCCC2)c2ccc3cc(Cl)c(Cl)cc3c21
1.37

What measured log10(TGI) is associated with Nc1nc(OCc2ccccc2)nc2[nH]ncc12 on HS 578T breast?
1.59

Return log10(TGI) measured with HS 578T breast given this molecule: O=C(NN1C(=O)CSC1c1ccc(Cl)cc1)c1[nH]c2ccc(F)cc2c1-c1ccccc1 (centres undefined)
0.97

Which measured log10(TGI) belongs to C=C(C)CCC(C)N1CCC(N2CCC(C(=O)NCCc3ccccc3)CC2)CC1 (centres undefined) , tested on HS 578T breast?
1.79

// map Nc1nc(Nc2cccc(F)c2)nc2ccccc12 to recorded log10(TGI) (system: HS 578T breast)
1.76

Form field - read-out: log10(TGI); system: HS 578T breast; submitted item: CCOC(=O)c1c(C)n(Cc2ccc(Cl)cc2Cl)c2c1cc1oc(=O)c(=O)n3c(Cc4ccccc4)nc2c13
0.49

Query log10(TGI) on HS 578T breast for Cc1cn2c(/C=N/N/C(N)=N\N)c(-c3ccc(Cl)c([N+](=O)[O-])c3)nc2s1
0.38

Entry CS(=O)(=O)Nc1cc(-c2ccc3ncnc(Nc4ccc5c(cnn5Cc5ccc(F)cc5)c4)c3c2)cnc1Cl , system HS 578T breast: what log10(TGI) was measured?
0.31

Request: log10(TGI), test system HS 578T breast, entry O=C(O)c1cc2c(s1)C(=O)c1sccc1C2=O
0.77

Please provide the recorded log10(TGI) for Fc1ccc(Nc2nc(NCCNc3ccnc4cc(Cl)ccc34)nc(N3CCOCC3)n2)cc1 , tested on HS 578T breast.
1.46

Any idea what log10(TGI) came out for CC(C)OC(=O)c1ccc2[nH]c(O)c(C(=Nc3ccc(N(C)C(=O)CN4CCN(C)CC4)cc3)c3ccccc3)c2c1 on HS 578T breast?
0.06

So what log10(TGI) did CCOC(=O)N1CCN(S(=O)(=O)c2oc(-c3ccc(Cl)cc3)nc2C#N)CC1 get with HS 578T breast?
1.38

Return log10(TGI) measured with HS 578T breast given this molecule: COc1cc2cc(Oc3ccc(NC(=O)c4ccc(Cl)c(C(F)(F)F)c4)cc3)c(C)nc2cc1OC
1.81

Write down the reported log10(TGI) of COc1cnc2c(c1)C(=O)c1c-2n(CCCN2CCCC2)c(=O)c2cc(Cl)ccc12 , test system: HS 578T breast.
1.25
